assay: Half life in human plasma after 24 hrs; assay type: ADME, cell-free
result type: half-life (min)
Return type: number; implicit unit min.

Entry Cc1ccc(NC(=O)c2cc(N3C(=O)c4ccc(C(=O)O)cc4C3=O)ccc2N2CCCCC2)cc1 needs its half-life filled in; supply it.
90

---

test: Intrinsic clearance in human hepatocytes assessed per 10^6 cells at 1 uM after 10 to 60 mins by LC-MS/MS analysis in presence of NADPH; format: ADME, cell-based, Hepatocyte; conditions: read-out: CLH
So I've got a bunch of compounds here, and I need their hepatocyte CLint at 1 µM values.
Return type: number; implicit unit µL/min/1e6 cells.

Entry Cc1ccc(NC(=O)c2cc(-c3cc4cc(C(=O)O)ccc4o3)ccc2N2CCCCC2)cc1 needs its hepatocyte CLint at 1 µM filled in; supply it.
35

Entry Cc1ccc(NC(=O)c2cc(-n3cc4ccc(C(=O)O)cc4n3)ccc2N2CCCCC2)cc1 needs its hepatocyte CLint at 1 µM filled in; supply it.
12

Reference source: ChEMBL document CHEMBL3745639
